Entries annotated with measured IC50
- SUBJECT_OF_TEST: Human DGAT2 (hDGAT2) (Homo sapiens (Human), UniProt Q96PD7)
- Sequence (Q96PD7 whole entry): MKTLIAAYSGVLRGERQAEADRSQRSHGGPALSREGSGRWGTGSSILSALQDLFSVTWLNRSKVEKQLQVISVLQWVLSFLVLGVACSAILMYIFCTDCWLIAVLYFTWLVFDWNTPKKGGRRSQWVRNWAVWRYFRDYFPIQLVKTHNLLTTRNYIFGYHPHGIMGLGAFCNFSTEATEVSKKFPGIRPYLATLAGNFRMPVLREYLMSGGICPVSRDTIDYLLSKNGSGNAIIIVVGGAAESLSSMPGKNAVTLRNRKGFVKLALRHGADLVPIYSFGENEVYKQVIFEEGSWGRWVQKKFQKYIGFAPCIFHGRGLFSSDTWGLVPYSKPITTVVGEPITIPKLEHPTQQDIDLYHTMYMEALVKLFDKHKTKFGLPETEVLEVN
- TEST_DETAILS: In vitro DGAT2 assay, IC50 determination with hDGAT2 membrane fraction
- Format: biochemical
- EXPERIMENTAL_CONTEXT: geometric mean; background for complete inhibition of DGAT2 obtained with 50 μM (1R,2R)-2-({3′-Fluoro-4′-[(6-fluoro-1,3-benzothiazol-2-yl)amino]-1,1′-biphenyl-4-yl}carbonyl)cyclopentanecarboxylic acid; read-out: DGAT2 IC50
Remember to put the unit after the number in your answer.

Reference set, count: 3
chemical_structure=O=C([C@@H]1CCCN(c2ccc3nc(-c4ccnc(C5CC5)n4)[nH]c3n2)C1)N1CCOCC1 subject_of_test="Human DGAT2 (hDGAT2) (Homo sapiens (Human), UniProt Q96PD7)" test_result="0.162 µM"
chemical_structure=O=C([C@@H]1CCCN(c2ccc3nc(C4(N5CCOCC5=O)CC4)[nH]c3n2)C1)N1CCCC1 subject_of_test="Human DGAT2 (hDGAT2) (Homo sapiens (Human), UniProt Q96PD7)" test_result="1.28 µM"
chemical_structure=Cc1ccn(C2(c3nc4ccc(N5CCC[C@@H](C(=O)N6CCCC6)C5)nc4[nH]3)CC2)n1 subject_of_test="Human DGAT2 (hDGAT2) (Homo sapiens (Human), UniProt Q96PD7)" test_result="0.546 µM"

Please tell me the measured IC50 for COC(=O)Cc1cccc(-c2nc3ccc(N4CCC[C@@H](C(=O)N5CCCC5)C4)nc3[nH]2)c1 ; system: Human DGAT2 (hDGAT2) (Homo sapiens (Human), UniProt Q96PD7). 0.0415 µM

====

- SUBJECT_OF_TEST: Human DGAT2 (hDGAT2) (Homo sapiens (Human))
- TEST_DETAILS: In vitro DGAT2 assay, IC50 determination with hDGAT2 membrane fraction
- Format: biochemical
- EXPERIMENTAL_CONTEXT: geometric mean; background for complete inhibition of DGAT2 obtained with 50 μM (1R,2R)-2-({3′-Fluoro-4′-[(6-fluoro-1,3-benzothiazol-2-yl)amino]-1,1′-biphenyl-4-yl}carbonyl)cyclopentanecarboxylic acid; read-out: DGAT2 IC50
Param label: returns TRUE when IC50 < 300 nM, returns FALSE otherwise, including exact equality.

Study these solved cases before continuing.
compound="O=C([C@@H]1CCCN(c2ccc3nc(-c4ccccc4)[nH]c3n2)C1)N1CCCC1 [Example 116]" assigned_label=TRUE
compound="O=C([C@@H]1CCCN(c2ccc3nc(C4(n5nccn5)CC4)[nH]c3n2)C1)N1CCCC1 [Example 214]" assigned_label=FALSE

State whether 300 nM exceeds IC50 recorded for CC(C)c1csc(-c2nc3ccc(N4CCC[C@@H](C(=O)N5CCCC5)C4)nc3[nH]2)n1 [Example 4] . TRUE

State whether 300 nM exceeds IC50 recorded for O=C([C@@H]1CCCN(c2ccc3nc(-c4cncc(F)c4)[nH]c3n2)C1)N1CCCC1 [Example 113] . TRUE

State whether 300 nM exceeds IC50 recorded for CCOC(=O)C1(c2cccc(-c3nc4ccc(N5CCC[C@@H](C(=O)N6CCCC6)C5)nc4[nH]3)c2)CC1 [Example 124] . TRUE

State whether 300 nM exceeds IC50 recorded for COc1cc(C(=O)O)cc(-c2nc3ccc(N4CCC[C@@H](C(=O)N5CCCC5)C4)nc3[nH]2)n1 [Example 126] . FALSE
